target: Neuronal acetylcholine receptor; alpha4/beta4 (Homo sapiens, UniProt P30926+P43681); assay: Agonist activity against human alpha4beta4 nAChR in SHEP1 cells assessed as 86Rb+ efflux at 5 nM to 100 uM; assay type: functional, cell-based
Active and inactive are the calls of the source. The calls are words filed in the database; no cut-off is given here.
measurementName: Activity

COC(=O)[C@@H]1[C@H]2CC[C@@H](C[C@H]1c1ccc(C)c(F)c1)N2 = inactive
Cc1cc2nc([C@H]3[C@@H](c4ccc(Cl)cc4)C[C@@H]4CC[C@H]3N4C)[nH]c2cc1C = inactive
Cc1ccc([C@H]2C[C@@H]3CC[C@H]([C@H]2C(=O)OC2CCC2)N3C)cc1 = inactive

###

tested on: Mus musculus; assay: Inhibition of nicotine-induced conditioned place preference in ICR mouse assessed as activity count and time spent in chamberdministered subcutaneously 15 mins prior to 0.5 mg/kg nicotine challenge up to 4 days using photosensors; assay type: functional, organism-based; design: dose 0.5 mg/kg, route subcutaneous
measurementName: IC50 (mg/kg)

CCc1cc([C@H]2[C@@H](c3ccc(C)cc3)C[C@@H]3CC[C@H]2N3C)on1 = 0.045
CC(NC(C)(C)C)C(=O)c1cccc(Cl)c1 (stereo not drawn) [BUPROPION] = 0.35
Cc1cc([C@H]2C[C@@H]3CC[C@H]([C@H]2c2cc(-c4ccccc4)no2)N3C)ccc1Cl = 0.07

###

target: Neuronal acetylcholine receptor; alpha4/beta2 (Homo sapiens, UniProt P17787+P43681); experiment: Antagonist activity against human alpha4beta2 nAChR in SHEP1 cells assessed as inhibition of carbamylcholine induced 86Rb+ efflux; format: functional, cell-based
Sequence (P17787 whole entry): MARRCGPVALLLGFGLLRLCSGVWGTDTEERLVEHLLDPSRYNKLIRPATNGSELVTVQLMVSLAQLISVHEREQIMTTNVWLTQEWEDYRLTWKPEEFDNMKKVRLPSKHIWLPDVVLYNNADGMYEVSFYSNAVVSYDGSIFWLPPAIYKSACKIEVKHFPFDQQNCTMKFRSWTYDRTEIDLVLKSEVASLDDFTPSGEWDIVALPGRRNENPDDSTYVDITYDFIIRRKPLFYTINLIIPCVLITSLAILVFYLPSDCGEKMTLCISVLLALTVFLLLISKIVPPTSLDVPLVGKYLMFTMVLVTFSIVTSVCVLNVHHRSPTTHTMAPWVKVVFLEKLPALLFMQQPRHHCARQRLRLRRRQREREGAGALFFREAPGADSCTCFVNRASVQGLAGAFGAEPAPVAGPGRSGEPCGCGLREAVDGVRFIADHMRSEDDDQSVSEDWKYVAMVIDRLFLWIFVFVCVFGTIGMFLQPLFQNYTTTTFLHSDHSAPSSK
Sequence (P43681 whole entry): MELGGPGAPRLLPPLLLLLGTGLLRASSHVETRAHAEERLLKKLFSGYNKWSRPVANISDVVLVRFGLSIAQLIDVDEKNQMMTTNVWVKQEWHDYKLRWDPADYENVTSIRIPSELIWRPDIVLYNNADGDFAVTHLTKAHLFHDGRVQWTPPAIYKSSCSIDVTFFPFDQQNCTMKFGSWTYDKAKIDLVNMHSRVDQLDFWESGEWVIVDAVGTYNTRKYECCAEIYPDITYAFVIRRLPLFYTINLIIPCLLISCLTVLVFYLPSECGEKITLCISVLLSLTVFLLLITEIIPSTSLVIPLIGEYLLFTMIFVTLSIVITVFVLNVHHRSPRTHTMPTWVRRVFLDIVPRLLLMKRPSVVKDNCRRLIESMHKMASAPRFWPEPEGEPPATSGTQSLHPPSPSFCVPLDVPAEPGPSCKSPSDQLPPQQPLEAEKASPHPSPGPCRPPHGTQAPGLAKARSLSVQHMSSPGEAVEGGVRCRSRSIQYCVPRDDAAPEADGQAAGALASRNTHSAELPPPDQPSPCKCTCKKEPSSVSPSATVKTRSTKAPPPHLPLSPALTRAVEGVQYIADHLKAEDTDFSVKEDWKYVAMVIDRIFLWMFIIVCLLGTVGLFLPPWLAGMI
pIC50: −log10 of the molar value.
pIC50 values, listed per item
measurementName: pIC50

Cc1cc([C@H]2[C@@H](c3ccc(Cl)c(C)c3)C[C@@H]3CC[C@H]2N3C)on1 = 5.11
Cc1cc2nc([C@H]3[C@@H](c4ccc(Cl)cc4)C[C@@H]4CC[C@H]3N4C)[nH]c2cc1C = 5.74
COC(=O)[C@H]1[C@@H](c2ccc(Cl)c(C)c2)C[C@@H]2CC[C@H]1N2C = 5.01
Cc1ccc([C@H]2C[C@@H]3CC[C@H]([C@H]2c2cc(-c4ccc(Cl)cc4)no2)N3C)cc1 = 3.03
